Test: Immunomodulatory activity in C57BL/6 mouse BMDC assessed as TNFalpha production at 30 uM after 3 days by FACS flow cytometric analysis (reference value: 91.3 +/- 34.5 pg/mL)
Assay type: functional
Label key: condition met means Activity under 2000 pg/mL; condition not met means Activity of 2000 pg/mL or more.

Solved entries:
State whether 2000 pg/mL exceeds Activity recorded for "CCCCc1nc2c(N)nc3cc(C(=O)OC)ccc3c2n1CC(C)(C)O" .
condition met

State whether 2000 pg/mL exceeds Activity recorded for "COC(=O)c1ccc2c(c1)nc(N)c1ncn(CC(C)(C)O)c12" .
condition met

State whether 2000 pg/mL exceeds Activity recorded for "CC(C)Cn1cnc2c(N)nc3ccccc3c21" .
condition met

State whether 2000 pg/mL exceeds Activity recorded for "CCOCc1nc2c(N)nc3ccccc3c2n1CC(C)(C)O" .
condition not met

More entries:
State whether 2000 pg/mL exceeds Activity recorded for "CCCCc1nc2c(N)nc3ccccc3c2n1CC(C)(C)O" .
condition met

###

Assay: Immunomodulatory activity in C57BL/6 mouse BMDC assessed as IL-10 production at 30 uM after 3 days by FACS flow cytometric analysis (reference value: 16.2 +/- 4.7 pg/mL)
Format: functional
Experimental Endpoint: Activity (pg/mL)
Value expressed in pg/mL; do not type the unit.

Some solved cases for reference:
So what's the measured Activity for this one? "CCOCc1nc2c(N)nc3ccccc3c2n1CC(C)(C)O"
72

So what's the measured Activity for this one? "CCCCc1nc2c(N)nc3ccccc3c2n1CC(C)(C)O"
181

So what's the measured Activity for this one? "CCCCc1nc2c(N)nc3cc(C(=O)OC)ccc3c2n1CC(C)(C)O"
110

So what's the measured Activity for this one? "COC(=O)c1ccc2c(c1)nc(N)c1ncn(CC(C)(C)O)c12"
94

So what's the measured Activity for this one? "CC(C)Cn1cnc2c(N)nc3ccccc3c21"
33

More entries:
So what's the measured Activity for this one? "CC(C)(O)Cn1cnc2c(N)nc3ccccc3c21"
60

###

Molecular target: Toll-like receptor 8 (Homo sapiens, UniProt Q9NR97)
Sequence (Q9NR97 whole entry): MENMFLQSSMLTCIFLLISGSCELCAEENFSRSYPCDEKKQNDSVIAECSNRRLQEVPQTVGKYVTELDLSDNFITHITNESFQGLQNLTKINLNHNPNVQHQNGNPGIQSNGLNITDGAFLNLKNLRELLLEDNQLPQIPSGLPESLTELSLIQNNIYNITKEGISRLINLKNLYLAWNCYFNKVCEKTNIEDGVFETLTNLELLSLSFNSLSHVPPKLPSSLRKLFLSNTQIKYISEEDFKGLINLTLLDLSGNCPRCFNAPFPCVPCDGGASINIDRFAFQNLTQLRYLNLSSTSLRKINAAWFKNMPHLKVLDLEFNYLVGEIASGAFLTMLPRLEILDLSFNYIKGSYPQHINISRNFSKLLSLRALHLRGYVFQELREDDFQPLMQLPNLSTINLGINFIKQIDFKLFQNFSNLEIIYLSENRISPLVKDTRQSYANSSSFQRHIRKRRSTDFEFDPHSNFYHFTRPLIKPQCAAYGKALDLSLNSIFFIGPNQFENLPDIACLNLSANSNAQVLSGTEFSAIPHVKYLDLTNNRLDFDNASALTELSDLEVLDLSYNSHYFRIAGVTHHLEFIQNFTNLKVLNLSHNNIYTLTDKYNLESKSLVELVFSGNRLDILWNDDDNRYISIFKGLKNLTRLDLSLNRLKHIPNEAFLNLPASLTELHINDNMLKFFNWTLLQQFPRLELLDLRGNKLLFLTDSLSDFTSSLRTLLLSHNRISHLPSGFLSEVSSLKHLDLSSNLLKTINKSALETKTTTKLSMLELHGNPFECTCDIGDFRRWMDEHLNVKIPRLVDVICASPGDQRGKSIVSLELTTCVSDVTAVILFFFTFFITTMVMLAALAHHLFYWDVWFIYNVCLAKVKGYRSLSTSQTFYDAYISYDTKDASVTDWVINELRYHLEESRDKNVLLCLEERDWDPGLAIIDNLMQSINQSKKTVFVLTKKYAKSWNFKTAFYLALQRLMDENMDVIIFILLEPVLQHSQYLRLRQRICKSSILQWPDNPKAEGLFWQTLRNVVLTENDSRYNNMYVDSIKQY
Assay: Agonist activity at human TLR8 transfected in HEK cells assessed as NFkappaB induction after 24 hrs by specific secreted alkaline phosphatase gene assay
Experimental Endpoint: EC50

Some solved cases for reference:
Test system Toll-like receptor 8 (Homo sapiens, UniProt Q9NR97); read-out EC50; what value for "COC(=O)c1ccc2c(c1)nc(N)c1ncn(CC(C)(C)O)c12" ?
> 270 µM

Test system Toll-like receptor 8 (Homo sapiens, UniProt Q9NR97); read-out EC50; what value for "CCCCc1nc2c(N)nc3cc(C(=O)OC)ccc3c2n1CC(C)(C)O" ?
41.3 µM

Test system Toll-like receptor 8 (Homo sapiens, UniProt Q9NR97); read-out EC50; what value for "CC(C)(O)Cn1cnc2c(N)nc3ccccc3c21" ?
> 270 µM

More entries:
Test system Toll-like receptor 8 (Homo sapiens, UniProt Q9NR97); read-out EC50; what value for CC(C)Cn1cnc2c(N)nc3ccccc3c21 [IMIQUIMOD] ?
> 270 µM

Reference for the values: ChEMBL document CHEMBL2216754
